Experiment: growth suppression of PTEN-deleted HCT116, pilot screen, cell-based, HCT116 clonal line, CellTiter-Glo (AID 824);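 note: 0% = 20 µM Hyamine control and 100% = vehicle cell control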
Details: 60 h, at 10 µM, stronger effect = lower value
Results filed as inconclusive are left out. Calls of active or inactive are those of the source.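 Rule for the calls: active = viability at or below 27.92% in each of two runs, the all-compound median minus 4 SD; inconclusive = no clear call, values can overlap the other calls; inactive = the rest.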
metric-name: viability

>>> experimental_value("COc1ccc(CC(=O)c2ccc(O)cc2O)cc1OC")
"89.2% (inactive)"
>>> experimental_value("N#CCCN1CCN(S(=O)(=O)c2ccc(S(=O)(=O)N3CCCC3)cc2)CC1")
"104% (inactive)"
>>> experimental_value("CCC(=O)N1C(C(=O)O)CSC1c1ccc(OC)cc1 (stereo not given)")
"93.5% (inactive)"
>>> experimental_value("CC1(C)CC(=O)c2c(Cc3ccccc3)n[nH]c2C1")
"90.5% (inactive)"

Shifting focus to the compound that follows.
Data request: Tell us which viability value is on record for CCOc1ccccc1N1CCN(S(=O)(=O)CC)CC1
Data returned: 97.6% (inactive)

----------
Test: RAM signaling pathway blockade in yeast – S. cerevisiae, Pdr1DBD-CYC8 efflux-inhibited sensitized strain, primary screen (AID 1298);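 note: 0% = DMSO untreated cells without growth and 100% = 10 µM 1-NA-PP1 full growth; higher means more yeast growth rescued from 5-FOA killing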
Conditions: S. cerevisiae cbk1-as DSE1-URA3 strain, 5-FOA growth OD615, 2 d; at 50 µM; stronger effect = higher value
metric-name: RAM network inhibition (%)
Answers are plain numbers, in %.

Below, each entry is followed by its recorded RAM network inhibition result.
>>> experimental_value("CCOc1ccc(N2C(=O)c3ccccc3C2O)cc1 (centres undefined)")
2.58
>>> experimental_value("OCCCc1nc2ccccc2n1CCOc1ccccc1")
2.86
>>> experimental_value("CCOC(=O)c1[nH]c2c(c1C)C(=O)CC(c1ccc(F)cc1)C2 (centres undefined)")
1.42
>>> experimental_value("O=C(CN1C(=O)c2ccccc2S1(=O)=O)NC1CC2CCC1C2 (centres undefined)")
-0.63
>>> experimental_value("CC(=O)Oc1cc2c(C(=O)NCc3ccncc3)c(C)oc2c2ccccc12")
8.02

Hi! Can you tell me RAM network inhibition for each of these compounds?
1. Nc1cc(C(=O)c2cccs2)ccc1Cl
2. NC(=O)c1cccc(S(=O)(=O)N2CC(c3ccccc3)CC2=O)c1 (centres undefined)
3. C=CCn1c(SCC(=O)N2CCOCC2)nc(O)c(Cc2ccccc2)c1=O
4. CCOc1ccc(-c2nc(CSc3nncs3)cs2)cc1OC
5. CCSc1nnc(NC(=O)c2ccccc2)s1
6. Cn1ccnc1SCC(=O)c1cc2ccccc2o1
7. C#CCn1c(=NC(=O)CN2C(=O)CCC2=O)sc2cccc(C)c21
8. c1ccc(-c2nnn(C34CC5CC(CC(C5)C3)C4)n2)cc1

Data returned:
[3.24, -0.76, 1.73, 5.42, 4.7, 1.04, 2.03, 5.67]

Provide each entry's RAM network inhibition from the list below.
1. CCc1ccccc1N1CSC2=C(C#N)C(c3ccccc3F)CC(=O)N2C1 (centres undefined)
2. CCOC(=O)N1CCN(C(=O)Cc2ccc(Cl)cc2)CC1
3. CC(=O)Nc1ccc(C2Nc3ccccc3C(=O)N2C2CCCCC2)cc1 (centres undefined)
4. Cc1ccccc1Cn1c(CN2CCN(C(=O)c3ccco3)CC2)nc2c1c(=O)n(C)c(=O)n2C
5. COc1cccc(C(=O)NCC(c2cccnc2)N2CCN(c3ccccc3OC)CC2)c1 (centres undefined)
6. Cc1ccc(CNC(=O)CCS(=O)(=O)c2cccc3nsnc23)cc1
7. Cc1[nH]c2ccccc2c1SCCN
8. Cc1c(NC(=O)c2ccc(F)cc2)c(=O)n(-c2ccccc2)n1C

Data returned:
1: 4.09; 2: 6.67; 3: -0.56; 4: 1.2; 5: 1.46; 6: 6.91; 7: 1.7; 8: 1.21

List reported RAM network inhibition for each of these compounds:
1. C/C(=C1/SC(N2CCOCC2)=NC1=O)c1ccc(Br)cc1
2. Cc1nc2cc(C(=O)O)ccc2n1-c1ccccc1
3. CSC1=N/C(=C\c2ccc(C)o2)C(=O)S1
4. O=C1c2ccccc2C(=O)N1CCC(=O)N1CCCc2ccccc21

Data returned:
0.72
1.31
-0.21
7.36

List reported RAM network inhibition for each of these compounds:
1. O=C(CCn1c(=O)oc2ccccc21)Nc1ccc2c(c1)OCCO2
2. Cc1ccc(-c2nc(CS(=O)(=O)CC(=O)NC3CCCCC3C)c(C)o2)cc1 (centres undefined)
3. O=C(CSc1nccn1-c1ccc(Cl)cc1)NCc1ccc2c(c1)OCO2
4. O=C(c1oc(=O)c2ccccc2c1-c1ccccc1)N1CCN(C2CCCCC2)CC1

Data returned:
1: 3.61; 2: 7.21; 3: 2.26; 4: 6.22

Could you tell me RAM network inhibition for each of these compounds? They are listed below.
1. Cc1ccc(CCN2CC(C(=O)NCCCN3CCN(C)CC3)CC2=O)cc1 (centres undefined)
2. COc1cccc(NS(=O)(=O)c2cn(C)c(=O)n(C)c2=O)c1
3. COc1ccc(-n2nnc3c(=O)n(CC(=O)OCc4ccccc4)cnc32)cc1
4. CCN1C(=O)N(CC)C(O)(c2ccccc2)C1(O)c1ccccc1 (centres undefined)

Data returned:
1. 1.23
2. 0.89
3. 6.18
4. 6.55

Data request: Identify RAM network inhibition associated with the compound CCC(C)NC(=O)C1CCN(S(=O)(=O)c2cccc3cccnc23)CC1 (centres undefined)
Data returned: 4.76

----------
Assay: viability gain of MRP-1-high H69AR cells under doxorubicin, pilot screen, MRP-1 activator project, CellTiter-Glo, duplicate (AID 807);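 note: compound pretreatment 18-22 h then 72 h combined with doxorubicin; 0% = doxorubicin alone and 100% = vehicle without doxorubicin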
Conditions: H69AR viability with doxorubicin, CellTiter-Glo luminescence; at 10 µM; stronger effect = higher value
Kindly supply the reported viability increase values for the records listed here.
Numbers only, in %.

See these solved cases before continuing.
>>> experimental_value("CCCC(=N)C1=C(O)CC(CC(C)SCC)CC1=O (stereo unspecified)")
-1.06
>>> experimental_value("C=CCSC1=NC(N)=C(C#N)C2(CCCCC2)C1C(N)=O (stereo unspecified)")
-1.39
>>> experimental_value("Cn1c(Cn2c(=O)sc3ccccc32)nnc1SCC(=O)N1CCCc2ccccc21")
-3.71
>>> experimental_value("CSc1ccccc1NC(=O)c1cnc2scc(C)n2c1=O")
-2.05
>>> experimental_value("c1nnc2c3c4c(sc3ncn12)CCC4")
-3.97

Could you tell me viability increase for each of these compounds? They are listed below.
1. Cc1ccc(-n2ncc3c(N4CCC5(CC4)OCCO5)ncnc32)c(C)c1
2. CCOC(=O)c1sc(NCCNc2nc(C)c(C(=O)OCC)s2)nc1C
3. CCSCCOC(=O)C1=C(C)NC(=O)NC1c1ccccc1 (stereo unspecified)
4. Cc1onc(-c2ccccc2Cl)c1C(=O)Nc1c(C)n(C)n(-c2ccccc2)c1=O
5. CNc1oc(-c2ccccc2)nc1C#N
6. O=c1cc(O)c2c(=O)n(-c3ccccc3)c3ccccc3c2o1

Data returned:
-7.95
-3.12
0.68
0.84
2.14
-4.59

----------
Assay: growth suppression of beta-catenin knockout HCT116, pilot screen, human colon tumor cells (AID 823);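 note: 0% = wells killed by 20 µM Hyamine and 100% = untreated DMSO cell wells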
Settings: CellTiter-Glo, 60 h, at 10 µM, stronger effect = lower value
Inconclusive results are not listed.
metric-name: viability (%)
Answers are plain numbers, in %.

For orientation, consider the following solved cases.
>>> experimental_value("COC(=O)c1c(C(=O)OC)c2n(c1C)Cc1ccccc1C2")
86.6
>>> experimental_value("O=C(CCn1c(=O)sc2ccccc21)NCc1ccccc1")
107
>>> experimental_value("CCCn1c(CNc2ccc(Br)cc2)nc2ccccc21")
88.2
>>> experimental_value("Cc1csc2nc(CNS(=O)(=O)c3ccc(-c4ccccc4)cc3)cn12")
90.2

Give me viability for each of these compounds, listed below.
1. COc1ccccc1N1CSC2=C(C#N)C(c3ccc(SC)cc3)CC(=O)N2C1 (configuration not stated)
2. COc1ccc(N2CCCCn3c2nc2c3c(=O)[nH]c(=O)n2C)cc1
3. OCCCc1nc2n(n1)C(c1cccs1)C=C(c1ccccc1)N2 (configuration not stated)
4. CC(=O)CSc1nc2ccc(Nc3nc(N4CCOCC4)nc(N4CCOCC4)n3)cc2s1
5. O=C1Nc2ccc(S(=O)(=O)N3CCCC3C(=O)O)c3cccc1c23 (configuration not stated)
6. O=C(Nc1ccc(N2CCN(C(=O)c3ccccc3)CC2)c(Cl)c1)c1ccco1
7. c1ccc(CN2CCN(c3nc4ccccc4n4cnnc34)CC2)cc1
8. CCCN(CCC)CCNC(=O)Cn1cnc2sc(C)c(S(=O)(=O)N3CCOCC3)c2c1=O

Data returned:
1. 102
2. 90.3
3. 83.6
4. 66.6
5. 92.8
6. 67
7. 94.8
8. 95.3

----------
Test: OD615 S. cerevisiae growth inhibition, permissive medium, pilot counter-assay, permissive growth control for S. cerevisiae lifespan shortening project (AID 705)
Settings: OD615, 24 h, at 10 µM, stronger effect = higher value
The source made the active and inactive calls.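 The calls were made as follows: active = growth inhibition above 25% in both replicates, a cutoff set 3 SD above the mean; inconclusive = above 25% in only one replicate; inactive = the rest.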
metric-name: growth inhibition

// worked examples, growth inhibition included
>>> experimental_value("Cc1cc(C)cc(OCC(O)CN2C(=O)NC(C)(C)C2=O)c1 (centres undefined)")
"2.01% (inactive)"
>>> experimental_value("O=C(Cn1ncc2c1-c1ccccc1OC2)Nc1nc2ccccc2s1")
"-6.12% (inactive)"
>>> experimental_value("CCc1ccccc1S(=O)(=O)Cc1ccc(C(=O)NC(C)C)o1")
"-2.43% (inactive)"
>>> experimental_value("Cc1occc1-c1nnc2sc(-c3ccc(-c4ccc(Cl)cc4)o3)nn12")
"7.94% (inactive)"
>>> experimental_value("COc1ccc(CN2CCCC2C(=O)Nc2ccc(OC)c(OC)c2)cc1OC (centres undefined)")
"-5.96% (inactive)"
>>> experimental_value("O=C(Cn1cc2c(n1)CCCC2)NCCCN1CCN(Cc2ccccc2)CC1")
"-1.54% (inactive)"
>>> experimental_value("COc1ccc(-c2nc(-c3ccc(NC(=O)c4ccncc4)cc3)no2)cc1OC")
"-3.46% (inactive)"
>>> experimental_value("Cc1cc(C)nc(SCC(=O)c2ccc(O)cc2O)n1")
"-0.2% (inactive)"

Consider the additional molecule presented here.
Data request: Identify measured growth inhibition corresponding to CC(C)(Oc1ccc(Cl)cc1)C(=O)NCc1ccco1
Data returned: -1.12% (inactive)
